Data provenance: patent US20220119513A1

EXPERIMENTAL_SYSTEM: TGFβ1 (R&D Systems)
Sequence (P01137 279-390): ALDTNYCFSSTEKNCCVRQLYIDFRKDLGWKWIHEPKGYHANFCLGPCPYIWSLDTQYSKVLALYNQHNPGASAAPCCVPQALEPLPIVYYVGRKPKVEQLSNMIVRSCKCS
ASSAY_PROCEDURE: cell-based or functional assay
Below, each of the binders is paired with its reported pSmad-3, IC50 value.

BINDER	UNIT_ANNOTATION	pSmad-3, IC50
affinity matured HcLb 260 (antibody, V domains shown, full IgG; constant regions not restated) VH: SEVQLVQSGAEVKKPGASVKVSCKTSGYTFITYWMNWVRQAPGAGLDWMGQIFPAWGVTNYNEMFEGRVTLTADTSTSTAYMELSSLRAGDIAVYYCARGYGNYALDAMDYWGQGTLVTVSS VL: DIVMTQTPPSLSVSPRETASISCRASESVDSYGNSFMHWYLQKPGQSPQLLIYLASNLESGVSDRFSGSGSGTDFTLRISRVEANDTGVYYCQQNNEDPLTFGQ	nM	1.33
affinity matured HcLb 257 (antibody, V domains shown, full IgG; also called canHcLb/55SW/100DY/30IM/31TK + canHcLb/237ND/242TS) VH: EVQLVQSGAEVKKPGASVKVSCKTSGYTFMKYWMNWVRQAPGAGLDWMGQIFPAWGSTNYNEMFEGRVTLTADTSTSTAYMELSSLRAGDIAVYYCARGYGNYALDAMDYWGQGTLVTVSS VL: DIVMTQTPPSLSVSPRETASISCRASESVDSYGNSFMHWYLQKPGQSPQLLIYLASNLESGVSDRFSGSGSGTDFTLRISRVEANDTGVYYCQQNDEDPLSFGQGTK	nM	0.7
affinity matured HcLb 259 (antibody, V domains shown, full IgG; constant regions not restated) VH: EVQLVQSGAEVKKPGASVKVSCKTSGYTFITYWMNWVRQAPGAGLDWMGQIFPAWGMTNYNEMFEGRVTLTADTSTSTAYMELSSLRAGDIAVYYCARGYGNYALDAMDYWGQGTLVTVSS VL: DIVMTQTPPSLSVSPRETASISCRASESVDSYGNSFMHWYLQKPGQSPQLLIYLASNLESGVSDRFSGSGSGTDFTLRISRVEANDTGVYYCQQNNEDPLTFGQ	nM	0.99
